METHOD: chemical genetic growth profiling, strain panel (AID 1159580);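 further: tested at 20 µM; growth read once vehicle control cultures reached saturation at 30 °C; 1 = growth at the plate median or of vehicle wells; lower values mean less growth of the strain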
ASSAY_SETUP: S. cerevisiae deletion strains, growth OD, locus YCL016C, strain dcc1, hits give low values
Among all 5,500 compounds or so, about 2,000 (36%) were called active. Inconclusive results (about 18%) are left out. Some of the results follow.
PARAMETER: normalized growth
A bare number is all that is needed in reply.

input: Output measured normalized growth for this item: CN(C)CCCC1(c2ccc(F)cc2)OCc2cc(C#N)ccc21 (stereo not drawn)
output: 0.997

Consider the record given below.
input: Identify the reported normalized growth for the following entry. "N[C@@H](Cc1ccc(N(CCCl)CCCl)cc1)C(=O)O"
output: 0.968

* * *

METHOD: chemical genetic growth profiling, strain panel (AID 1159580)
ASSAY_SETUP: S. cerevisiae deletion strains, growth OD, locus YEL061C, strain CIN8 (second series), hits give low values
About 2,000 (36%) of roughly 5,500 compounds were called active. Another 18% or so got no clear call; they are omitted. This is one part of the list.
PARAMETER: normalized growth
A bare number is all that is needed in reply.

Observe how each entry below is paired with its result.
input: Consider the compound COC(=O)[C@@H]1OC(=O)C2OC23[C@@]1(C)CCC1[C@]2(C)C(C[C@H](O)[C@]13C)C(C)(C)[C@H](OC(C)=O)C[C@@H]2OC(C)=O (some centres undefined) . State its measured normalized growth.
output: 1.02

input: Find the measured normalized growth of "O=C(Oc1cc(O)cc2c1C[C@@H](OC(=O)c1cc(O)c(O)c(O)c1)[C@@H](c1cc(O)c(O)c(O)c1)O2)c1cc(O)c(O)c(O)c1" and report it.
output: 1

input: Assign normalized growth to the following record: COC(=O)C[C@H]1C2(C)CC34OC5(C)O[C@@]6([C@H](OC(C)=O)C(OC(C)=O)[C@]7(C)C(/C(=C(/O)C(C)C)C(=O)O[C@H]7c7ccoc7)[C@@]6(O5)[C@H](OC(C)=O)[C@@]3(O)C2OC(=O)C(C)C)[C@]14C (some centres undefined)
output: 0.994

Query compound follows.
input: Using known records, supply normalized growth for "O=C(O[C@@H]1Cc2c(O)cc(O)cc2O[C@@H]1c1ccc(O)c(O)c1)c1cc(O)c(O)c(O)c1"
output: 1.03

* * *

METHOD: chemical genetic growth profiling, strain panel (AID 1159580)
ASSAY_SETUP: S. cerevisiae deletion strains, growth OD, locus YER110C, hits give low values
The whole screen tested about 5,500 compounds, of which about 2,000 (36%) were called active. Not shown: some 18% with an inconclusive outcome. The list shows a part of the results.
PARAMETER: normalized growth

Here is how some molecules turned out for normalized growth.
input: Using known records, supply normalized growth for "CN1CC(CO)=C[C@@H]2c3cccc4[nH]cc(c34)C[C@H]21"
output: 1.01 (inactive)

input: Check the records and state normalized growth for "O=C(O)/C=C/c1ccc(O)c(O)c1"
output: 1.02 (inactive)

input: Consider the molecule "Oc1ccc2c(c1)O[C@H](c1ccc(O)c(O)c1)[C@@H](O)C2" . State its measured normalized growth.
output: 1.02 (inactive)

input: // Input: CC1(C)CCC[C@@]2(C)C1[C@@H](O)C[C@]1(C)C2CC[C@@H]2[C@@]3(C)CC[C@H](C(C)(C)O)[C@@H]3CC[C@@]21C (stereo partly specified) . Output its normalized growth only.
output: 0.977 (inactive)

input: Supply reported normalized growth belonging to this molecule: COc1cc2nc(N(C)CCCNC(=O)C3CCCO3)nc(N)c2cc1OC (stereo unspecified)
output: 1 (inactive)

More entries:
input: Supply recorded normalized growth for "C#CCN(C)Cc1ccccc1" here.
output: 1.01 (inactive)

input: Give recorded normalized growth. CNCCC(Oc1ccc(C(F)(F)F)cc1)c1ccccc1 (stereo unspecified)
output: 0.994 (inactive)

* * *

METHOD: chemical genetic growth profiling, strain panel (AID 1159580)
ASSAY_SETUP: S. cerevisiae deletion strains, growth OD, locus YCL029C, strain bik1
In all, about 5,500 compounds went through this assay and about 2,000 (36%) were called active. Inconclusive results (about 18%) are left out. Rule as the data show it: active = normalized growth mostly below about 0.91 (no sharp cut-off); inconclusive = no clear call, values can overlap the other calls; inactive = mostly above about 0.92. The list shows a part of the results.
Allowed answers: YES = active, NO = inactive

Here's what some known entries look like.
input: Tell me the recorded outcome of this test for "CC[C@@]1(O)C[C@H](O[C@H]2C[C@H](N(C)C)[C@H](O)[C@H](C)O2)c2c(cc3c(c2O)C(=O)c2c(O)cccc2C3=O)[C@H]1C(=O)OC" .
output: YES

input: What did this assay record as the result for "CC(=O)Oc1cc(OC(C)=O)c2c(c1)O[C@H](c1ccc(OC(C)=O)c(OC(C)=O)c1)[C@H](OC(C)=O)C2" ?
output: NO

input: I would be grateful if you could indicate the recorded call for COc1ccc(OC)c(C(O)CNC(=O)CN)c1 (configuration not stated) .
output: NO

input: Query: recorded result category for "O=C(O)CCCc1ccccc1" in this test
output: NO

input: For this compound, state the assay outcome: "O=C(Oc1cc(O)cc2c1C[C@@H](OC(=O)c1cc(O)c(O)c(O)c1)[C@@H](c1cc(O)c(O)c(O)c1)O2)c1cc(O)c(O)c(O)c1"
output: YES

Next:
input: // outcome(item) with item = "O=C(O[C@@H]1Cc2c(O)cc(O)cc2O[C@@H]1c1cc(O)c(O)c(O)c1)c1cc(O)c(O)c(O)c1"
output: YES

input: Could you check what this test reported for COC(=O)[C@@H]1OC(=O)C2OC23[C@@]1(C)CCC1[C@]2(C)C(C[C@H](O)[C@]13C)C(C)(C)[C@H](OC(C)=O)C[C@@H]2OC(C)=O (some centres not stated) ?
output: NO

* * *

METHOD: chemical genetic growth profiling, strain panel (AID 1159580);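 further: tested at 20 µM; growth read once vehicle control cultures reached saturation at 30 °C; 1 = growth at the plate median or of vehicle wells; lower values mean less growth of the strain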
ASSAY_SETUP: S. cerevisiae deletion strains, growth OD, locus YNL322C, strain KRE1, hits give low values
Out of some 5,500 compounds screened, about 2,000 (36%) were called active. About 18% were inconclusive and are not listed. The list shows a part of the results.
PARAMETER: normalized growth
The reply should be a number, written without any unit.

Consider the worked cases shown below.
input: Note down normalized growth recorded for "Oc1cc(O)c2c(c1)O[C@H](c1ccc(O)c(O)c1)[C@@H](O)C2"
output: 0.99

input: // fetch normalized growth given entry "CCc1nnc(N=CNO)s1"
output: 1.01

Consider the additional compound presented here.
input: Supply reported normalized growth belonging to this compound: "CCOC(=O)N=Nc1c(O)[nH]c2ccc(F)cc12"
output: 1.02

* * *

METHOD: chemical genetic growth profiling, strain panel (AID 1159580);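 further: tested at 20 µM; growth read once vehicle control cultures reached saturation at 30 °C; 1 = growth at the plate median or of vehicle wells; lower values mean less growth of the strain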
ASSAY_SETUP: S. cerevisiae deletion strains, growth OD, locus YPL241C, strain CIN2, hits give low values
In all, about 5,500 compounds went through this assay and about 2,000 (36%) were called active. Another 18% or so got no clear call; they are omitted. This is one part of the list.
Below, each entry is listed alongside its reported normalized growth.
Reply: number alone, nothing else.

Example compounds with recorded normalized growth:
input: Report normalized growth for COc1cc([C@@H]2c3cc4c(cc3C(OC3O[C@@H]5COC(C)O[C@H]5[C@H](O)[C@H]3O)C3COC(=O)[C@@H]32)OCO4)cc(OC)c1O (some centres undefined)
output: 1.01

input: Check the records and state normalized growth for "O=C(O)CCCc1ccccc1"
output: 1.01

input: Quickly give me recorded normalized growth for CC(=O)S[C@@H]1CC2=CC(=O)CC[C@]2(C)[C@H]2CC[C@@]3(C)[C@@H](CC[C@@]34CCC(=O)O4)C12 (some centres undefined)
output: 1

Lab note: next compound to report on.
input: Give the reported value of normalized growth for this record: "COc1ccc(-c2coc3cc(O)ccc3c2=O)cc1"
output: 0.998

* * *

Listed below: normalized growth values for each entry.
METHOD: chemical genetic growth profiling, strain panel (AID 1159580);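 further: tested at 20 µM; growth read once vehicle control cultures reached saturation at 30 °C; 1 = growth at the plate median or of vehicle wells; lower values mean less growth of the strain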
ASSAY_SETUP: S. cerevisiae deletion strains, growth OD, locus YNR049C, strain mso1, hits give low values
The whole screen tested about 5,500 compounds, of which about 2,000 (36%) were called active. Inconclusive results (about 18%) are left out. The list shows a part of the results.
API doc: respond with a numeric literal and nothing else, no unit.

input: Quote normalized growth reported for "COc1ccc(C(=O)CC(=O)O)c2c1C=CC(C)(C)O2" please.
output: 1.02

input: Write down normalized growth measured for item "CCCCCCCCC(=O)NCc1ccc(O)c(OC)c1"
output: 1.02

input: Assign normalized growth to the following record: "COc1ccc(-c2coc3cc(O)ccc3c2=O)c(OC)c1O"
output: 0.972

input: Answer with the recorded normalized growth of CN1C2CCC1CC(OC(c1ccccc1)c1ccccc1N)C2 (configuration not stated) only.
output: 0.996

input: Indicate its recorded normalized growth; the compound in question is "CCn1cc(C(=O)O)c(=O)c2cc(F)c(N3CCNCC3)nc21"
output: 0.981

Further cases:
input: Give the measured normalized growth for Cc1ccccc1C(OCCN(C)C)c1ccccc1 (configuration not stated)
output: 1.02

input: Write down normalized growth measured for item "CCCCCCCCCCC[C@@H](C[C@H]1OC(=O)[C@H]1CCCCCC)OC(=O)[C@@H](CC(C)C)NC=O"
output: 1.04
